System: IGROV1 ovarian
assay overview: NCI tumour cell line growth inhibition, 48 h
value type: TGI (µM)

1) CC(=O)OCc1cc(CCC(=O)NCCNc2c3ccccc3nc3ccccc23)cc(COC(C)=O)c1O[Si](C)(C)C(C)(C)C; 27.6
2) COc1cc(Nc2cn[nH]c2-c2ccc(Cl)cc2)cc(OC)c1OC; 69.6
3) NCCCNc1nc2ccccc2c2c(=O)c3cc(OC(F)(F)F)ccc3sc12; 2.9
4) COC(=O)/C=C/c1cc(O)c2oc(-c3ccc(O)c(O)c3)c(C(=O)OC)c2c1; 11.5

---

Tested on: LOX IMVI melanoma
assay overview: NCI tumour cell line growth inhibition, 48 h
value type: TGI

1. CC(=O)n1nc(-c2ccccc2)n(/N=C/c2ccc([N+](=O)[O-])cc2)c1=O; > 100 µM
2. CCCCc1c(OC)cc(O)c2c1C(=O)c1[nH]c(C(=O)O)c(O)c(=O)c1C2=O; > 100 µM
3. Cc1ccc(/C=N/n2c(=O)[nH]c3ccccc3c2=O)cc1; > 100 µM
4. O=C(CC(=O)Nc1cccc(C(=O)O)c1)Nc1cccc(C(=O)O)c1; > 100 µM
5. O=[N+]([O-])c1ccc(/C=N/n2c(CO)nc3ccccc32)o1; 15.9 µM
6. CN1C(=O)N/C(=C\c2ccc(S(=O)(=O)NN)cc2)C1=O; > 100 µM
7. COc1ccc(C(=O)c2cc(OC)c(C)c(OC)c2)cc1OC(=O)CCl; 19.6 µM
8. CCOC(=O)C1=CC(C)(C(=O)OCC)Nc2c(nc(OC)n(C)c2=O)N1 (stereo not drawn); > 10 µM

---

TGI by entry:
System: SF-295 CNS
assay overview: NCI tumour cell line growth inhibition, 48 h
value type: TGI

1. CC(C)(Cc1ccccc1)NC1=NCCO1; > 100 µM
2. CCN(CC)c1c(N(CC)CC)c(=O)c1=O; > 100 µM
3. CC1OC(n2cc(F)c(=O)[nH]c2=O)C=CC1O (stereo not drawn); > 100 µM
